Source listed as ChEMBL document CHEMBL1152676.

# Test system: K562
# protocol: Antiproliferative activity against human K562 cells after 5 days by MTT assay
# Format: functional, cell-based
# measurement parameters: Homo sapiens, K562, 120 h
outcome measure: IC50 (µM)
Answers are plain numbers, in µM.

{"molecule": "CCC/C(=C\\c1ccc(OC)c(O)c1)C(=O)c1cc(OC)c(OC)c(OC)c1", "IC50 / µM": 0.0022}
{"molecule": "COc1ccc(C(=O)/C(C)=C/c2cc(OC)ccc2OC)cc1", "IC50 / µM": 2.3}
{"molecule": "COc1cc(C(=O)/C=C/c2ccc(O)c(O)c2)cc(OC)c1OC", "IC50 / µM": 1.2}

Hey, can you go through the list below and give me IC50 for every item?
1. COc1cc(/C=C(\C)C(=O)c2cc(OC)c(OC)c(OC)c2)cc(OC)c1OC
2. CCO/C(=C\c1ccc(OC)c(O)c1)C(=O)c1cc(OC)c(OC)c(OC)c1
3. COc1ccc(OC)c(/C=C/C(=O)c2c(OC)cc(OC)cc2OC)c1
4. COc1cc(OC)c(/C=C/C(=O)c2cc(OC)c(OC)c(OC)c2)c(OC)c1

2.5
0.0026
7.2
0.2

Hey, can you go through the list below and give me IC50 for every item?
1. Cc1ccc(C(=O)[C@H]2O[C@@H]2c2ccc(C)cc2)cc1 (racemic)
2. COc1ccc(/C=C/C(=O)c2ccc3c(c2)OCO3)cc1OC
3. COc1ccc(CCC(=O)c2cc(OC)c(OC)c(OC)c2)cc1
4. CCCO/C(=C\c1ccc(OC)c(F)c1)C(=O)c1cc(OC)c(OC)c(OC)c1

[12, 7.1, 10, 0.02]

Hey, can you go through the list below and give me IC50 for every item?
1. COc1ccc(OC)c(C(=O)/C=C/c2ccc(N(C)C)cc2)c1
2. COc1cc(/C=C/C(=O)c2cc(OC)c(OC)c(OC)c2)cc(OC)c1OC
3. COc1ccc(CCC(O)c2cc(OC)c(OC)c(OC)c2)cc1 (configuration not stated)

1: 0.04; 2: 1.5; 3: 4

Hey, can you go through the list below and give me IC50 for every item?
1. COc1ccc(/C=C/C(=O)c2ccc(C)cc2)cc1O
2. COc1ccc(/C=C/C(=O)c2ccc(C)cc2)cc1
3. COc1ccc([C@H]2O[C@@H]2C(=O)c2ccc(C)cc2)cc1 (racemic)
4. COc1ccc(CC(C)C(O)c2cc(OC)c(OC)c(OC)c2)cc1O (configuration not stated)
5. COc1ccc(/C=C/C(=O)c2cc(OC)c(OC)c(OC)c2)cc1OC
6. COc1ccc(/C=C(\C)C(O)c2cc(OC)c(OC)c(OC)c2)cc1O (configuration not stated)

1.5
20
15
0.6
0.3
0.09

Please give the measured IC50 for this molecule: CO/C(=C\c1ccc(OC)c(F)c1)C(=O)c1cc(OC)c(OC)c(OC)c1
0.0037
